B1: library; numbered along this chain (parent)
chain: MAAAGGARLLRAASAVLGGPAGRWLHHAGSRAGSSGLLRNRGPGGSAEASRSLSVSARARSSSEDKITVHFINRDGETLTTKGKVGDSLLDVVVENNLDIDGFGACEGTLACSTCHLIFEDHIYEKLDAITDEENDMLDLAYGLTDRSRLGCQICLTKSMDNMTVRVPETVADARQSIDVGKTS

variants of: B1; experiment: scaled log2 fold change in cell abundance, elesclomol vs control (0 = silent mean, 1 = nonsense mean) (scaled log2 ratio); higher = higher viability under elesclomol (loss of FDX1 cuproptosis function); details: with ABC1 FDX1 KO; elesclomol 5 nM; glucose 10 mM; 14 days;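 also: variant abundance is its share of total variant reads in each endpoint sample, from next-generation sequencing of the integrated ORF PCR-amplified out of genomic DNA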
Categories are defined by ranges of scaled log2 fold change, namely group A = under 0.01, group B = from 0.01 up to 0.4, group C = 0.4 and over

>  <Mutant Label>
L138G

>  <Label>
group C

$$$$
>  <Mutant Label>
T170S

>  <Label>
group A

$$$$
>  <Mutant Label>
D173V

>  <Label>
group C

$$$$
>  <Mutant Label>
R11G

>  <Label>
group B

$$$$
>  <Mutant Label>
T68F

>  <Label>
group A

$$$$

# input Band of "R166G" ?
# output group B
